- measuredTarget: human PAD4 (hPAD4) (Homo sapiens)
- protocol: RFMS human PAD4 functional assay (rapid-fire mass spectrum)
- condition: 5 nM hPAD4 enzyme, 250 μM BAEE, 50 μM Calcium; 30 min preincubation, 90 min reaction at 37° C.
Assign labels as follows, please: condition met for IC50 below 100 nM; condition not met for IC50 equal to or exceeding 100 nM.

COc1cc(C(=O)N2C[C@H]3CC[C@@H]2[C@@H]3N)cc2nc(-c3cc4cccnc4n3CC3CC3)n(CC3CN(c4ccnc(C5CC5)n4)C3)c12 ... condition met
COc1cc(C(=O)N2C[C@H]3CC[C@@H]2[C@@H]3N)cc2nc(-c3cc4cccnc4n3CC3CC3)n(C3CN(C(=O)c4ccncc4)C3)c12 ... condition not met
COc1cc(C(=O)N2CC3CCC2[C@@H]3N)cc2nc(-c3cc4cccnc4n3CC3CC3)n(Cc3cnn(-c4ncccn4)c3)c12 (stereo partly drawn) ... condition met

# input Identify whether the molecule COc1cc(C(=O)N2CC3CCC2[C@@H]3N)cc2nc(-c3cc4ccccc4n3CC3CC3)n(Cc3nc[nH]n3)c12 (stereo partly drawn) records IC50 below 100 nM.
# output condition not met

# input Identify whether the molecule `COc1ccc2cc(-c3nc4cc(C(=O)N5C[C@H]6CC[C@@H]5[C@@H]6N)cc(OC)c4n3CC3CN(c4ncncc4C#N)C3)n(CC3CC3)c2n1` records IC50 below 100 nM.
# output condition met

# input Identify whether the molecule `COC(=O)N1CC(n2c(-c3cc4cccnc4n3CC3CC3)nc3cc(C(=O)N4C[C@H]5CC[C@@H]4[C@@H]5N)cc(OC)c32)C1` records IC50 below 100 nM.
# output condition not met

# input Identify whether the molecule `COc1cc(C(=O)N2C[C@H]3CC[C@@H]2[C@@H]3N)cc2nc(-c3cc4ccccc4n3CC3CC3)n(CC3CN(C(=O)c4cccc(C(=O)O)c4)C3)c12` records IC50 below 100 nM.
# output condition met

# input Identify whether the molecule `COc1cc(C(=O)N2C[C@H](N)C[C@@H](F)C2)cc2nc(-c3cc4ccccc4n3CC3CC3)n(Cc3cn(C)nc3C)c12` records IC50 below 100 nM.
# output condition not met

# input Identify whether the molecule `COc1cc(C(=O)N2C[C@H]3CC[C@@H]2[C@@H]3N)cc2nc(-c3cc4cccnc4n3CC3CC3)n(CC3CN(S(=O)(=O)C(F)(F)F)C3)c12` records IC50 below 100 nM.
# output condition not met

# input Identify whether the molecule `COc1cc(C(=O)N2C[C@H]3CC[C@@H]2[C@@H]3N)cc2nc(-c3cc4cccnc4n3CC3CC3)n(C3CN(C(=O)c4ccnc(N)n4)C3)c12` records IC50 below 100 nM.
# output condition not met

# input Identify whether the molecule `COc1cc(C(=O)N2C[C@H]3CC[C@@H]2[C@@H]3N)cc2nc(-c3cc4cccnc4n3CC3CC3)n(CC3CN(c4ccccc4)C3)c12` records IC50 below 100 nM.
# output condition not met

---

- measuredTarget: human PAD4 (hPAD4) (Homo sapiens, UniProt Q9UM07)
- Sequence (Q9UM07 whole entry): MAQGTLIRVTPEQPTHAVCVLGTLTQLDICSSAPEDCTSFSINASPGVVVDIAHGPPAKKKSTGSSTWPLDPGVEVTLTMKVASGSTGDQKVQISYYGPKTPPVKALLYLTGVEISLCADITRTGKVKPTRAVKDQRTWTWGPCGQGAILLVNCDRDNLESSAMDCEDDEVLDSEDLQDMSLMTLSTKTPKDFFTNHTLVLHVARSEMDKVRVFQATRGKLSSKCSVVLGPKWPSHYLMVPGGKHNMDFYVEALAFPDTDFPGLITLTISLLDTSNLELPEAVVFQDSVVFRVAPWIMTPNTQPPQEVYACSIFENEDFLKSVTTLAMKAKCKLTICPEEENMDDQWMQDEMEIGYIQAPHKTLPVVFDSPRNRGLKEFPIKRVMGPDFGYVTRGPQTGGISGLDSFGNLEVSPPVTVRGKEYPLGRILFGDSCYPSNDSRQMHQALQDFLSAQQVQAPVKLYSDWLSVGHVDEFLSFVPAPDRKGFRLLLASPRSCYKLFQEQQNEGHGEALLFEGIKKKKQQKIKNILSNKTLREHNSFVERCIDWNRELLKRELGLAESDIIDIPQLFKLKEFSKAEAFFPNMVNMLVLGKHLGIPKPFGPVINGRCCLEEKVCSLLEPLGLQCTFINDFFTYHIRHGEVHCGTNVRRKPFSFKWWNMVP
- protocol: RFMS human PAD4 functional assay (rapid-fire mass spectrum)
- condition: 5 nM hPAD4 enzyme, 250 μM BAEE, 50 μM Calcium; 30 min preincubation, 90 min reaction at 37° C.
pIC50: −log10 of the molar value.
Kindly return true (1) if reported pIC50 is no lower than 7; return false (0) if it is lower.

COc1cc(C(=O)N2C[C@H]3CC[C@@H]2[C@@H]3N)cc2nc(-c3cc4cccnc4n3CC3CC3)n(CC3CCN(C(=O)c4ccnc(Cl)n4)CC3)c12 ... false (0)

# input Identify whether the reported pIC50 of the following molecule is 7 or greater: `COc1cc(C(=O)N2C[C@H]3CC[C@@H]2[C@@H]3N)cc2nc(-c3cc4ccccc4n3CC3CC3)n(CCCN3CCCC3=O)c12`
# output true (1)

# input Identify whether the reported pIC50 of the following molecule is 7 or greater: COc1cc(C(=O)N2CC3CCC2[C@@H]3N)cc2nc(-c3cc4cccnc4n3CC3CC3)n(CC3CC(C(N)=O)C3)c12 (stereo partly drawn)
# output false (0)

# input Identify whether the reported pIC50 of the following molecule is 7 or greater: N[C@@H]1C2CCC1N(C(=O)c1cc(Cl)c3c(c1)nc(-c1cc4ccccc4n1CC1CC1)n3CC1CN(C(=O)c3ccccc3)C1)C2 (stereo partly drawn)
# output true (1)

# input Identify whether the reported pIC50 of the following molecule is 7 or greater: COc1cc(C(=O)N2CC3CCC2[C@@H]3N)cc2nc(-c3cc4ccccc4n3CC3CC3)n(Cc3cnn(-c4cc(Cl)ccn4)c3)c12 (stereo partly drawn)
# output true (1)

# input Identify whether the reported pIC50 of the following molecule is 7 or greater: COc1cccc(-n2cc(Cn3c(-c4cc5cccnc5n4CC4CC4)nc4cc(C(=O)N5CC6CCC5[C@@H]6N)cc(OC)c43)cn2)n1 (stereo partly drawn)
# output true (1)

# input Identify whether the reported pIC50 of the following molecule is 7 or greater: `COc1cc(C(=O)N2C[C@H]3CC[C@@H]2[C@@H]3N)cc2nc(-c3cc4cccnc4n3CC3CC3)n(CC3CN(c4cnc(C#N)nc4)C3)c12`
# output true (1)
